# Assay system: T1, IRF4 DBD C99A (Homo sapiens, UniProt Q15306 20-132, C99A)
# T1 sequence: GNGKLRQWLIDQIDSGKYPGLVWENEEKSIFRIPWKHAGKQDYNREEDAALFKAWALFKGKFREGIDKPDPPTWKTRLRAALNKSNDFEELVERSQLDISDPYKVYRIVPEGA
# Measurement notes: SPR steady state; FP: PBS + 0.05% Tween20, 5 nM DNA, 1 h, room temperature; SPR: Biacore S200, SA chip, protein 0.1-4500 nM, running buffer not given in material; errors are SD
# Condition context: protein: recombinant; tags: N-terminal His8-linker-His8-TEV, cleaved; label: 3' biotin; hairpin, TTTT loop

>  <Binder>
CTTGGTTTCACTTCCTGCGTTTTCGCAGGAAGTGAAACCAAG (structured_DNA) [IRE hairpin (biotin)]

>  <Kd [nM]>
173

$$$$
